Reference source: the RNAGym collection of RNA variant scans (doi:10.7554/elife.80360)

B1: HDV Ribozyme (parent)
chain: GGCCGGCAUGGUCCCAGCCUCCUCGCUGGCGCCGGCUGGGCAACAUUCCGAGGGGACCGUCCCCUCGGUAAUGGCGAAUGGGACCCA

# Variants of: B1
# PROTOCOL TEXT: self-cleavage, relative activity (ratio to wild type); higher = more cleavage; co-transcriptional

{"VARIANT DESCRIPTION": "G35U A71G", "self-cleavage": 0.308}
{"VARIANT DESCRIPTION": "U27A U46G", "self-cleavage": 0.369}
{"VARIANT DESCRIPTION": "G55C C63U", "self-cleavage": 0.808}
{"VARIANT DESCRIPTION": "U20C U72G", "self-cleavage": 0.0723}
{"VARIANT DESCRIPTION": "G80A G81U", "self-cleavage": 0.0936}
{"VARIANT DESCRIPTION": "C3U U9G", "self-cleavage": 0.942}
{"VARIANT DESCRIPTION": "G6U U79A", "self-cleavage": 0.246}
{"VARIANT DESCRIPTION": "C30A U60C", "self-cleavage": 0.582}
{"VARIANT DESCRIPTION": "A45G C48G", "self-cleavage": 1.23}
{"VARIANT DESCRIPTION": "C19G U20A", "self-cleavage": 0.0314}
{"VARIANT DESCRIPTION": "G35U G38A", "self-cleavage": 0.0702}
{"VARIANT DESCRIPTION": "G2U C48G", "self-cleavage": 0.0615}
{"VARIANT DESCRIPTION": "C22A G34C", "self-cleavage": 0.0773}
{"VARIANT DESCRIPTION": "G31A U47A", "self-cleavage": 0.332}
{"VARIANT DESCRIPTION": "G54A G80C", "self-cleavage": 0.0831}
{"VARIANT DESCRIPTION": "A8U C44U", "self-cleavage": 0.415}
{"VARIANT DESCRIPTION": "C18G U65C", "self-cleavage": 0.175}
{"VARIANT DESCRIPTION": "U37C C48G", "self-cleavage": 1.04}
{"VARIANT DESCRIPTION": "G11U G76A", "self-cleavage": 0.292}
{"VARIANT DESCRIPTION": "C21G C32G", "self-cleavage": 0.19}
{"VARIANT DESCRIPTION": "G28U G54C", "self-cleavage": 0.234}
{"VARIANT DESCRIPTION": "U47C C57U", "self-cleavage": 0.712}
